# Test system: Streptococcus pneumoniae
# assayName: Antibacterial activity against erythromycin-susceptible Streptococcus pneumoniae ATCC 49619
Each item that follows carries a reported MIC.
A number alone suffices; assume µg/mL.

Entry under test: "CCCCCNC(=O)O[C@H]1[C@H](C)O[C@@H](O[C@H]2[C@H](C)[C@@H](O[C@@H]3O[C@H](C)C[C@H](N(C)C)[C@H]3O)[C@@](C)(O)C[C@@H](C)CN(C)[C@H](C)[C@H]3OC(=O)O[C@]3(C)[C@@H](CC)OC(=O)[C@@H]2C)C[C@@]1(C)OC" . Its MIC was 0.06

Entry under test: "CCCCNC(=O)O[C@H]1[C@H](C)O[C@@H](O[C@H]2[C@H](C)[C@@H](O[C@@H]3O[C@H](C)C[C@H](N(C)C)[C@H]3O)[C@@](C)(O)C[C@@H](C)CN(C)[C@H](C)[C@H]3OC(=O)O[C@]3(C)[C@@H](CC)OC(=O)[C@@H]2C)C[C@@]1(C)OC" . Its MIC was 0.12

Entry under test: "CC[C@H]1OC(=O)[C@H](C)[C@@H](O[C@H]2C[C@@](C)(OC)[C@@H](OC(=O)NC(C)C)[C@H](C)O2)[C@H](C)[C@@H](O[C@@H]2O[C@H](C)C[C@H](N(C)C)[C@H]2O)[C@@](C)(O)C[C@@H](C)CN(C)[C@H](C)[C@H]2OC(=O)O[C@@]21C" . Its MIC was 0.12
